Tested on: Streptococcus pneumoniae (ATCC6305)
assayOverview: Microtitre plate assay, IC90 determination
Type: cell-based
experimentalConditions: 90% inhibitory concentration for bacterial growth, 37° C., resazurin fluorescence, read-out: IC90 (μg/ml) SPN 6305

{"molecule": "CN(C)CCC(O)(c1cc(F)cc(F)c1)c1cc(Br)cc2cc(Cc3ccccc3)c(-n3ccnc3)nc12 (stereo not shown)", "unitSpec": "µg/mL", "IC90": 14.5}
{"molecule": "CN(C)CCC(O)(c1ccccc1)c1cc(Br)cc2cc(Cc3ccccc3)c(OCCN3CCCCC3)nc12 (stereo not shown)", "unitSpec": "µg/mL", "IC90": 60.3}
{"molecule": "COc1nc2c(C(O)(CCN(C)C)c3cccs3)cc(-c3cccnc3)cc2cc1Cc1ccccc1 (stereo not shown)", "unitSpec": "µg/mL", "IC90": 22.8}
{"molecule": "COc1nc2c(C(O)(CCN(C)C)c3cccs3)cc(Br)cc2cc1Cc1ccccc1 (stereo not shown)", "unitSpec": "µg/mL", "IC90": 11.5}
